# target_system: Protein LANA1 (Human herpesvirus 8 type P (isolate GK18))
# test_details: LANA–H2A/H2B histone binding inhibitors, dose response, biochemical, fluorescence polarization, cell-free, retest (AID 435023)
# condition_notes: LANA peptide-nucleosome binding
The source made the active and inactive calls. How the calls were made is not given here.
Tick one outcome: Y for active, N for inactive

| compound | cat |
| --- | --- |
| C/C(=N/NC(=O)c1ccncc1)c1cc2ccc(O)cc2oc1=O | N |

Check the results log: what was the call for "CCCCc1ccc(N=N/C(C(=O)Nc2ccc(NC(C)=O)cc2OC)=C(/C)O)cc1" ? N

Check the results log: what was the call for "O=c1c(/C=C(\O)c2ccc(F)cc2)nc2ccccc2n1-c1ccccc1" ? N

Check the results log: what was the call for "N#CC(C#N)=C/C(C#N)=C(/N)N1CCN(c2ccc(Cl)cc2)CC1" ? N

Check the results log: what was the call for COc1cc([N+](=O)[O-])ccc1N1C(=O)CC(Sc2nccc(C)n2)C1=O (stereo unspecified) ? N

Check the results log: what was the call for "Cn1[nH]c(-c2ccccc2)c(/C=N/O)c1=O" ? N

Check the results log: what was the call for "O=[N+]([O-])c1cccc(/C=N/Nc2nccnc2Cl)c1" ? N

Check the results log: what was the call for CCOc1ccc(N2C(=O)C3ON(c4ccccc4)C(c4ccco4)C3C2=O)cc1 (stereo unspecified) ? N

Check the results log: what was the call for "CC1=NCCc2c1[nH]c1cc(O)ccc21" ? Y

Check the results log: what was the call for "Cc1ccc(NC2=C([N+](=O)[O-])CS(=O)(=O)C2)cc1" ? N

Check the results log: what was the call for CCN(CC)CCN1C(=O)C(O)=C(C(=O)c2ccc(C)o2)C1c1ccccn1 (stereo unspecified) ? N

* * *

# target_system: Protein LANA1 (Human herpesvirus 8 type P (isolate GK18))
# test_details: LANA–H2A/H2B histone binding inhibitors, dose response, biochemical, fluorescence polarization, cell-free, retest (AID 435023)
# condition_notes: LANA peptide-nucleosome binding
Calls of active or inactive are those of the source. The rule behind the calls is not given here.
Tick one outcome: T for active, F for inactive

| compound | target_system | cat |
| --- | --- | --- |
| CC(=O)c1cccc(OC(=O)C2=CC=CN3CCS(=O)(=O)N=C23)c1 | Protein LANA1 (Human herpesvirus 8 type P (isolate GK18)) | F |
| COc1cccc(CNC(=O)c2ccc(NC(=O)CC3SC(N4CCCC4)=NC3=O)cc2)c1 (stereo not given) | Protein LANA1 (Human herpesvirus 8 type P (isolate GK18)) | F |
| Cc1ccc(/C(O)=C/c2nc3cc(C)ccc3oc2=O)cc1 | Protein LANA1 (Human herpesvirus 8 type P (isolate GK18)) | T |
| COc1ccc(C2C(C(=O)c3ccco3)=C(O)C(=O)N2CC2CCCO2)cc1OC (stereo not given) | Protein LANA1 (Human herpesvirus 8 type P (isolate GK18)) | F |

Attention now turns to another entry.
Check the results log: what was the call for "CCc1nnc(NS(=O)(=O)c2ccc(N=CC3=C(O)CC(C)(C)CC3=O)cc2)s1" ? F
